Each entry below carries its recorded Huh7_HIBIT-HSD17β13_DC50 GMean Asymptote Maximum.
# Tested on: HiBiT-HSD17β13 fusion protein (N-terminal HiBiT-tagged HSD17β13 isoform D) in Huh7 HiBiT-HSD17β13 OE cells
# test: Whole-cell Huh7-HSD17B13 HiBiT assay (degrader potency and maximal efficacy, luminescence readout)
# Type: cell-based, human
# setup.conditions: 24 hour incubation, max. concentration 1 μM, geometric mean, * = geometric mean for all forms tested (parent and salt forms)
# Experimental: Degrader potency and maximal efficacy of test compounds were determined using a whole-cell Huh7-HSD17B13 HiBiT assay, utilizing a luminescence readout. A HiBiT tag was fused to the N-terminus of HSD17β13, and therefore the HiBiT luminescence signal produced in the assay was proportional to the level of HiBiT-HSD17β13 fusion protein in a sample. […] Each assay was conducted after a 24 hour incubation period. […] Then Luminescence was read using an EnVision Plate Reader (Perkin Elmer PE2103). […]
Where a name gives a salt, the structure may show the parent alone.
Answer with a number only, understood to be in %.

Cn1c(=O)n(C2CCC(=O)NC2=O)c2ccc(CCCN3CCN(c4ccc(-c5ccc6cn([C@H]7CC[C@H](CNC(=O)c8cc(F)c(O)c(F)c8F)CC7)nc6c5)cn4)CC3)cc21 (mixture of isomers) = 87
Cn1c(=O)n(C2CCC(=O)NC2=O)c2ccc(CCCN3CCN(c4cnc(-c5ccn6cc([C@]78CC[C@](CNC(=O)c9cc(F)c(O)c(F)c9F)(CC7)CC8)nc6c5)nc4)CC3)cc21 (mixture of isomers) [Example 120, trifluoroacetate salt] = 82
Cn1c(=O)n(C2CCC(=O)NC2=O)c2ccc(CCCN3CC(F)(F)CC4(CCN(c5ccc6cn([C@H]7CC[C@H](CNC(=O)c8cc(F)c(O)c(F)c8F)CC7)nc6c5)C4=O)C3)cc21 (mixture of isomers) [Example 65, trifluoroacetate salt] = 81
O=C1CCN(c2cnn3cc(CCCN4CCN(c5ccc6cn([C@H]7CC[C@H](CNC(=O)c8cc(F)c(O)c(F)c8F)CC7)nc6c5)CC4)ccc23)C(=O)N1 [Example 48, trifluoroacetate salt] = 74

Request the reported Huh7_HIBIT-HSD17β13_DC50 GMean Asymptote Maximum associated with Cn1c(=O)n(C2CCC(=O)NC2=O)c2ccc(CCCN3CC[C@@H]4CN(c5ccc6cn([C@H]7CC[C@H](CNC(=O)c8cc(F)c(O)c(F)c8F)CC7)nc6c5)C[C@H]4C3)cc21 (mixture of isomers) [Example 101, formate salt]
74

Now consider Cn1c(=O)n(C2CCC(=O)NC2=O)c2ccc(CCCN3CCOC4(C3)CN(c3ncc(-c5ccc6cn(C7CCC(CNC(=O)c8cc(F)c(O)c(F)c8F)CC7)nc6c5)cn3)C4)cc21.O=C(O)C(F)(F)F (racemic) and answer again.
81

###

Each entry below carries its recorded Huh7_HIBIT-HSD17β13_DC50 GMean Asymptote Maximum.
# Test system: HiBiT-HSD17β13 fusion protein (N-terminal HiBiT-tagged HSD17β13 isoform D) in Huh7 HiBiT-HSD17β13 OE cells
# test: Whole-cell Huh7-HSD17B13 HiBiT assay (degrader potency and maximal efficacy, luminescence readout)
# Format: cell-based, human
# setup.conditions: 24 hour incubation, max. concentration 1 μM, geometric mean, * = geometric mean for all forms tested (parent and salt forms)
Where a name gives a salt, the structure may show the parent alone.
Answer with a number only, understood to be in %.

Cc1ccc(C(=O)N2CCC3(CCC(c4nc(-c5ccc6cn([C@H]7CC[C@H](CNC(=O)c8cc(F)c(O)c(F)c8F)CC7)nc6c5)no4)CC3)CC2)cc1N1CCC(=O)NC1=O = 81
Cn1c(=O)n(C2CCC(=O)NC2=O)c2ccc(CN3CCN(c4ncc(-c5ccc6cn([C@]78CC[C@](CNC(=O)c9cc(F)c(O)c(F)c9F)(CC7)CC8)nc6c5)cn4)CC3)cc21 (mixture of isomers) = 81
Cn1c(=O)n(C2CCC(=O)NC2=O)c2ccc(CCCN3CCN(c4nc(-c5nc([C@]67CC[C@](CNC(=O)c8cc(F)c(O)c(F)c8F)(CC6)CC7)no5)cc(N5CCOCC5)n4)CC3)cc21 (mixture of isomers) = 79
Cn1c(=O)n(C2CCC(=O)NC2=O)c2cccc(CCN3CCN(c4ccc5cn([C@H]6CC[C@H](CNC(=O)c7cc(F)c(O)c(F)c7F)CC6)nc5c4)CC3)c21 (mixture of isomers) [Example 56, trifluoroacetate salt] = 82

Then this compound:
Request the reported Huh7_HIBIT-HSD17β13_DC50 GMean Asymptote Maximum associated with O=C(O)C(F)(F)F.O=C1CCN(c2cnn3cc(CCCN4CCN(c5ncc(-c6ccc7cn(C89CCC(CNC(=O)c%10cc(F)c(O)c(F)c%10F)(CC8)CC9)nc7c6)cn5)CC4)ccc23)C(=O)N1
76

These measurements were taken from patent US20240238425A1.
